For each of the compounds below, state its IC50.
Tested on: HSV-1
Test: HSV Antiviral (ELISA) Assay in Vero cells
Type: cell-based, herpes simplex virus type 1
Details: Human alphaherpesvirus 1; HSV-1, Vero cells; read-out: IC50 (ug/ml) HSV
Please give a number only; it is taken to be in µg/mL.

In: # lookup: IC50 of O=C(Nc1ccc(NC(=S)Nc2ccc(Cl)cc2O)cc1)c1ccccc1F [Example 1001]
Out: 4.3

In: Query: IC50; subject: COc1cccc(C(=O)Nc2ccc(NC(=S)Nc3ccc(OC)c(Cl)c3)cc2)c1 [Example 819]
Out: 6

In: Consider the compound shown here: COc1cc(OC)c(NC(=S)Nc2ccc(NC(=O)c3ccccc3F)cc2)cc1Br [Example 827] What is its recorded IC50?
Out: 0.2

In: What does the data say about its IC50? Entry: COc1ccc(C(=O)Nc2ccc(NC(=S)Nc3ccc(OC)c(Cl)c3)cc2)cc1 [Example 820]
Out: 4

###

System: HCMV recombinant mutant virus (RV145)
Experiment: microbe, parasite or virus in culture
Type: cell-based, human cytomegalovirus
Details: HCMV
Answer each item with its documented IC50 ug/ml HCMV.
Report the value in µg/mL with no unit label.

In: Looking for the measured IC50 ug/ml HCMV of CC(NC(=S)Nc1ccc(NC(=O)c2ccccc2Br)cc1)c1ccc(F)cc1 (stereo not shown) , can you help?
Out: 4.1

In: So what does the record say about IC50 ug/ml HCMV for `CN(C)c1ccc(Cl)cc1NC(=S)Nc1ccc(NC(=O)c2ccccc2F)cc1` ?
Out: 2.5

###

Tested on: HCMV recombinant mutant virus (RV145)
Experiment: microbe, parasite or virus in culture
Type: cell-based, human cytomegalovirus
Conditions: Human betaherpesvirus 5, read-out: IC50 ug/ml HCMV, HCMV
Field: IC50. Provide a value for each of the compounds that follow.

In: I am curious: what IC50 value has been reported for `O=C(Nc1ccc(NC(=S)Nc2ccc(Br)c(Cl)c2)cc1)c1ccccc1F` ?
Out: > 10 µg/mL

In: I am curious: what IC50 value has been reported for CC(NC(=S)Nc1ccc(NC(=O)c2cc3ccccc3cn2)cc1)c1cc2ccccc2o1 (centres unmarked) ?
Out: > 10 µg/mL

In: Could you share which IC50 value was measured for CC(NC(=S)Nc1ccc(NC(=O)c2ccccc2F)cc1)c1ccccc1C(F)(F)F (centres unmarked) ?
Out: > 2.2 µg/mL

In: May I ask what IC50 has been recorded for CC(NC(=S)Nc1ccc(NC(=O)c2nccc3ccccc23)cc1)c1cc2ccccc2o1 (centres unmarked) ?
Out: > 10 µg/mL

In: Which IC50 is listed for `O=C(Nc1ccc(NC(=S)Nc2cccc(OC(F)(F)F)c2)cc1)c1ccccc1F` ?
Out: > 10 µg/mL

In: Fill blank: measured IC50 of the compound `O=C(Nc1ccc(NC(=S)Nc2ccc(Cl)cc2)cc1)c1ccccc1F` is ____.
Out: > 10 µg/mL

In: Look up IC50: `O=C(Nc1ccc(NC(=S)Nc2cc(Cl)cc(Cl)c2)cc1)c1ccccc1F`
Out: > 10 µg/mL

In: Look at this compound and give its reported IC50. CC(NC(=S)Nc1ccc(NC(=O)c2ccccc2F)cc1)c1ccccc1F (centres unmarked)
Out: 0.8 µg/mL

###

Assignment: determine reported IC50 ug/ml HCMV for the given compounds.
System: HCMV recombinant mutant virus (RV145)
Test: microbe, parasite or virus in culture
Type: cell-based, human cytomegalovirus
Conditions: HCMV

In: Look up IC50 ug/ml HCMV for this compound: `COc1cc(OC)c(NC(=S)Nc2ccc(NC(=O)c3ccccc3F)cc2Cl)cc1Cl`
Out: >10 µg/mL

In: Need IC50 ug/ml HCMV of `O=C(Nc1ccc(NC(=S)Nc2cccc(C(F)(F)F)c2)cc1)c1ccccc1F` , thanks.
Out: >10 µg/mL

In: Look up IC50 ug/ml HCMV: `COc1cc(OC)c(NC(=S)Nc2ccc(NC(=O)c3ccc(F)cc3)cc2)cc1Cl`
Out: 3 µg/mL

In: Given CC(NC(=S)Nc1ccc(NC(=O)c2ccccc2F)cc1)c1ccc(Cl)cc1 (centres unmarked) , state its recorded IC50 ug/ml HCMV.
Out: 1.8 µg/mL

In: Bench note: what IC50 ug/ml HCMV did `COc1cc(OC)c(NC(=S)Nc2ccc(NC(=O)c3ccccc3C(=O)O)cc2)cc1Cl` show?
Out: >50 µg/mL

In: Which IC50 ug/ml HCMV value belongs to `CC(C)Oc1ccc(NC(=S)Nc2ccc(NC(=O)c3ccccc3F)cc2)cc1Cl` ?
Out: >10 µg/mL

In: Dear colleague, I am looking for the recorded IC50 ug/ml HCMV of the following compound: `C[C@H](NC(=S)Nc1ccc(NC(=O)c2ccc(F)cc2)cc1)c1ccc(Br)cc1`
Out: 3.4 µg/mL

In: Requested read-out: IC50 ug/ml HCMV. Entry: `CN1CCN(c2cc(NC(=S)Nc3ccc(NC(=O)c4ccccc4F)cc3)cc(C(F)(F)F)c2)CC1`
Out: >0.5 µg/mL
